- assay-protocol: Rat study: drug plasma levels (pharmacokinetics)
- Format: in vivo
- experimental-conditions: Sprague Dawley, plasma, 0.1 mg/kg, Dose 0.1, Multiple, n = 2, read-out: t½

{"columns": ["molecule", "half-life"],
 "data": [
  ["O=C(O)COc1ccc2c(c1)CCN(Cc1ccc(-c3ccc(C(F)(F)F)cc3)s1)CC2 [compound 7]", "~13 h"]
]}

---

pEC50 by entry:
- measurement-target: PPARδ (Homo sapiens, UniProt Q03181)
- Sequence (Q03181 211-439 limits assumed): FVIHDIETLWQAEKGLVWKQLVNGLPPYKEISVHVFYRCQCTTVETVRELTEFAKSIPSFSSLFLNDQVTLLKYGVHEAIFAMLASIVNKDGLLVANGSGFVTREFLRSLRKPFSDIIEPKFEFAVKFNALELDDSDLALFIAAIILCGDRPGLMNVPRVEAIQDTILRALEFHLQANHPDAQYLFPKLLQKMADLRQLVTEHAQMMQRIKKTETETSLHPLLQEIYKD
- assay-protocol: Transfection assay, GAL4-PPARδ LBD luciferase reporter in HEK293 cells
- experimental-conditions: 18-24 hrs
pEC50: −log10 of the molar value.

{"columns": ["structure-as-smiles", "measurement-target", "pEC50"],
 "data": [
  ["Cc1c(-c2ccc(C(F)(F)F)cc2)csc1CN1CCc2ccc(OC(C)(C)C(=O)O)cc2CC1", "PPARδ (Homo sapiens, UniProt Q03181)", 6.43],
  ["CC(C)(Oc1ccc2c(c1)CCN(Cc1nc(-c3ccc(C(F)(F)F)cc3)ns1)CC2)C(=O)O", "PPARδ (Homo sapiens, UniProt Q03181)", 7.02],
  ["CC(C)(Oc1ccc2c(c1)CCN(Cc1cc(-c3ccc(C(F)(F)F)cc3)on1)CC2)C(=O)O", "PPARδ (Homo sapiens, UniProt Q03181)", 6.91],
  ["CC(C)(Oc1ccc2c(c1)CCN(Cc1cnn(-c3ccc(C(F)(F)F)cc3)c1)CC2)C(=O)O", "PPARδ (Homo sapiens, UniProt Q03181)", 6.37]
]}

---

- measurement-target: PPARδ (Homo sapiens, UniProt Q03181)
- assay-protocol: Transfection assay, GAL4-PPARδ LBD luciferase reporter in HEK293 cells
- experimental-conditions: 18-24 hrs
metric: log10(EC50) (log10 of the value in nM)

{"columns": ["compound", "log10(EC50)"],
 "data": [
  ["CC(C)(Oc1ccc2c(c1)CCN(Cc1cc(-c3ccc(C(F)(F)F)cc3)ns1)CC2)C(=O)O [compound 2]", 2.21],
  ["CC(c1ccc(-c2ccc(C(F)(F)F)cc2)o1)N1CCc2ccc(OCC(=O)O)cc2CC1 (single isomer, unassigned) [28a]", 0.26],
  ["O=C(O)COc1ccc2c(c1)CCN(Cc1cc(-c3ccc(C(F)(F)F)cc3)on1)CC2 [compound 11]", 2.13],
  ["CCC(c1ccc(-c2ccc(C(F)(F)F)cc2)s1)N1CCc2ccc(OCC(=O)O)cc2CC1 (stereo not shown) [compound 30]", -0.05],
  ["Cc1cc(-c2ccc(C(F)(F)F)cc2)oc1CN1CCc2ccc(OCC(=O)O)cc2CC1 [compound 36]", 1.47],
  ["Cc1c(-c2ccc(C(F)(F)F)cc2)csc1CN1CCc2ccc(OCC(=O)O)cc2CC1 [compound 15]", 2.02],
  ["Cc1nc(-c2ccc(C(F)(F)F)cc2)sc1CN1CCc2ccc(OCC(=O)O)cc2CC1 [compound 5]", 1.71],
  ["Cc1nc(-c2ccc(C(F)(F)F)cc2)oc1CN1CCc2ccc(OCC(=O)O)cc2CC1 [compound 18]", 2.24],
  ["O=C(O)COc1ccc2c(c1)CCN(Cc1ccc(-c3ccc(Cl)cc3)o1)CC2 [compound 35]", 2.23],
  ["O=C(O)COc1ccc2c(c1)CCN(Cc1ccc(-c3ccc(C(F)(F)F)cc3)nc1)CC2 [compound 46]", 2.49],
  ["O=C(O)COc1ccc2c(c1)CCN(Cc1nc(-c3ccc(C(F)(F)F)cc3)ns1)CC2 [compound 3]", 2.16],
  ["O=C(O)COc1ccc2c(c1)CCN(Cc1ccc(-c3ccc(OC(F)(F)F)cc3)o1)CC2 [compound 34]", 2.57],
  ["Cc1cc(-c2ccc(C(F)(F)F)cc2)sc1CN1CCc2ccc(OC(C)(C)C(=O)O)cc2CC1 [compound 14]", 2.60],
  ["CC1CN(Cc2ccc(-c3ccc(C(F)(F)F)cc3)o2)CCc2ccc(OCC(=O)O)cc21 (stereo not shown) [compound 26]", 1.20],
  ["CC(c1ccc(-c2ccc(C(F)(F)F)cc2)s1)N1CCc2ccc(OCC(=O)O)cc2CC1 (single isomer, unassigned) [27a]", -0.04],
  ["O=C(O)C1(Oc2ccc3c(c2)CCN(Cc2cnc(-c4ccc(C(F)(F)F)cc4)s2)CC3)CC1 [compound 39]", 1.08],
  ["O=C(O)COc1ccc2c(c1)CCN(Cc1ccc(-c3ccc(Cl)cc3Cl)s1)CC2 [compound 31]", 2.37],
  ["O=C(O)C1(Oc2ccc3c(c2)CCN(Cc2ccc(-c4ccc(C(F)(F)F)cc4)o2)CC3)CC1 [compound 38]", 1.26],
  ["Cc1nc(-c2ccc(C(F)(F)F)cc2)oc1CN1CCc2ccc(OC(C)(C)C(=O)O)cc2CC1 [compound 19]", 2.36],
  ["O=C(O)COc1ccc2c(c1)CCN(Cc1ccc(-c3ccc(OC(F)(F)F)cc3)s1)CC2 [compound 32]", 2.20],
  ["Cc1nc(-c2ccc(C(F)(F)F)cc2)sc1CN1CCc2ccc(OC(C)(C)C(=O)O)cc2CC1 [compound 6]", 2.39]
]}
